Experiment: antimalarial activity against Dd2 strain (AID 2302);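 further: 0% = DMSO untreated growth and 100% = chloroquine plus artemisinin killed control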
Settings: P. falciparum Dd2 in RBCs, LDH growth readout, 72 h; at 2 µM; stronger effect = higher value
A collection of compounds and their measured growth inhibition
Enter your answer as a number in %; do not include the unit.

Here is how some compounds turned out for growth inhibition.
Cc1ccc(N2C(N)=NC(N)=NC2c2ccccc2)cc1 (stereo not drawn)    1
CN(C)C(CNC(=O)c1cc(-c2ccncc2)c(-c2ccc(Cl)c(O)c2)o1)c1ccccc1 (stereo not drawn)    28

Please turn your attention to the following entry.
// returns reported growth inhibition for input COc1cccc(OCC2CCCN(CCCCNC(=O)c3ccc(NC(=O)c4ccc(Cl)cc4)cc3)C2)c1 (stereo not drawn) 49

Origin of the recorded values: PubChem BioAssay
